Each recorded value in this set is attributed to patent US20210221899A1.

Target: T1, human NGF (human, UniProt P01138 122-241)
T1 construct: also called human Nerve Growth Factor; hN
T1 chain: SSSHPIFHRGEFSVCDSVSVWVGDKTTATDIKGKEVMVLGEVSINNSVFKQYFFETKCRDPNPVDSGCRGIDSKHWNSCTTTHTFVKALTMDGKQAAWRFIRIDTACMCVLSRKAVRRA
Experiment: SPR (Biacore), human NGF amine-coupled on chip, antibody injected
Readout kind: kon (M⁻¹ s⁻¹)
One number for each entry, in M⁻¹ s⁻¹.

Items follow; give kon for each.
1. humanized mAb can48L2VH_HM855336.1 / can48L2VL_Z22192.1_P14L (antibody, V domains shown) VH: EVQLVESGGGLVQPGGSLRLSCAASGFTFSTYGMNWVRQAPGKGLEWVSYISSGGSSIYYADSVKGRFTISRDNAKNSLYLQMNSLRAEDTAVYYCAGSRYTYAYGGGYEFHFWGQGTLVTVSS VL: QSVVTQPPSVSGALGQRVTISCTGSTMDIDIFGVSWYQQLPGTAPKLLIYGDGDRPSGVPDRFSGSKSGASASLAITGLQAEDEADYHCQSGDSTLGALAIFGGGTHVTVL
2. humanized mAb can9L12VH_HM855939 / can9L12VL (antibody, V domains shown) VH: QVQLVESGGGVVQPGGSLRLSCAASGFTFSSHGMHWVRQAPGKGLEWVSVINSGGSSTYYADSVKGRFTISRDNSKNTLYLQMNSLRAEDTAVYYCAKESVGGWEQLVGPHFDYWGQGTLVIVSS VL: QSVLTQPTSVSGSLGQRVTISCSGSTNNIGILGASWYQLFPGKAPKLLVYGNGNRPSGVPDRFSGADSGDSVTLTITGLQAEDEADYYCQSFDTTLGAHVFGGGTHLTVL

// result
283000
390000
